System: CCRIS mutagenicity, Ames/micronucleus/aberration tests
Assay: CCRIS mutagenicity studies
Conditions: Test System: AMES SALMONELLA TYPHIMURIUM; Strain/Indicator: TA100; Metabolic Activation: HAMSTER, LIVER, S-9, AROCLOR 1254 (10%); Method: PREINCUBATION
The source made the active and inactive calls. The rule behind the calls is not given here.
Would you mind answering with one of these outcomes? true (1) (active), false (0) (inactive)

For orientation, consider the following solved cases.
Recorded test outcome, item O=C(Oc1ccccc1)c1ccccc1O
false (0)

Recorded test outcome, item CCOP(=S)(OCC)SCSC(C)(C)C
false (0)

Recorded test outcome, item NC(N)=NC(N)=NCCc1ccccc1
false (0)

Recorded test outcome, item Nc1ccc(/C=C/c2ccc(N)c(S(=O)(=O)O)c2)c(S(=O)(=O)O)c1
false (0)

Recorded test outcome, item CCCCC(CC)COC(=O)CCCCC(=O)O (stereo unspecified)
false (0)

Continuing:
Recorded test outcome, item CN(C)c1ccc(N=Nc2ccccc2)cc1
false (0)

Recorded test outcome, item O=[N+]([O-])c1ccc(CCO)cc1
true (1)

Recorded test outcome, item COc1cc(-c2ccc(N/N=C3\C(=O)c4c(O)cc(S(=O)(=O)O)cc4C=C3S(=O)(=O)O)c(OC)c2)ccc1N/N=C1\C(=O)c2c(O)cc(S(=O)(=O)O)cc2C=C1S(=O)(=O)O
false (0)

* * *

System: CCRIS mutagenicity, Ames/micronucleus/aberration tests
Assay: CCRIS mutagenicity studies
Settings: Test System: AMES SALMONELLA TYPHIMURIUM; Strain/Indicator: TA97; Metabolic Activation: NONE; Method: STANDARD PLATE
Activity calls are given as the source filed them. No rule for the calls is given here.
Would you mind answering with one of these outcomes? yes (1) for active, no (0) for inactive

For orientation, consider the following solved cases.
Recorded test outcome, item Cc1nc2c(c3[nH]c4ccccc4c13)C(=O)C=C(N1CC1)C2=O
yes (1)

Recorded test outcome, item O=NO
no (0)

Recorded test outcome, item NC(=O)NO
yes (1)

Continuing:
Recorded test outcome, item Nc1nc(N)nc(Cl)n1
no (0)

Recorded test outcome, item ClC1=C(Cl)[C@]2(Cl)[C@@H]3[C@@H]4C[C@@H]([C@H]5O[C@@H]45)[C@@H]3[C@@]1(Cl)C2(Cl)Cl
no (0)

Recorded test outcome, item Cc1ccc(N=CN(C)C=Nc2ccc(C)cc2C)c(C)c1
no (0)

Recorded test outcome, item CCOC(=O)c1[nH]c2ccccc2c1N=Cc1ccc(C)cc1
no (0)

Recorded test outcome, item CC(C)(C)c1cc(Cc2cc(C(C)(C)C)c(O)c(C(C)(C)C)c2)cc(C(C)(C)C)c1O
no (0)

Recorded test outcome, item O=[N+]([O-])c1ccc(/C=N/n2cccn2)o1
yes (1)

Recorded test outcome, item COc1cc(O)c2c(=O)c(O)c(-c3ccc(O)c(O)c3)oc2c1
no (0)

* * *

System: CCRIS mutagenicity, Ames/micronucleus/aberration tests
Experiment: CCRIS mutagenicity studies
Details: Test System: AMES SALMONELLA TYPHIMURIUM; Strain/Indicator: TA97; Metabolic Activation: NONE; Method: STANDARD PLATE
Activity calls are given as the source filed them. The rule behind the calls is not given here.
Would you mind answering with one of these outcomes? active, inactive

Recorded test outcome, item c1cc2ccc3ccc4ccc5ccc6ccc1c1c2c3c4c5c61
inactive

Recorded test outcome, item O=NN(CCCl)C(=O)NC1CCCCC1
inactive

Recorded test outcome, item CCC1C(C)=NN=C(c2ccc(OC)c(OC)c2)c2cc(OC)c(OC)cc21 (stereo not given)
inactive

Recorded test outcome, item Cn1c(CC(=O)OCCCl)c(C(=O)O)c2ccccc21
inactive

Recorded test outcome, item O[C@@H]1C=CC=C[C@H]1O
inactive

Continuing:
Recorded test outcome, item CN(C)N=O
inactive

Recorded test outcome, item ClCCl
active

Recorded test outcome, item C=C(Cl)Cl
inactive
